Target: RPS6KA5 KD1 (human) (UniProt O75582)
Sequence (O75582 whole entry, looked up): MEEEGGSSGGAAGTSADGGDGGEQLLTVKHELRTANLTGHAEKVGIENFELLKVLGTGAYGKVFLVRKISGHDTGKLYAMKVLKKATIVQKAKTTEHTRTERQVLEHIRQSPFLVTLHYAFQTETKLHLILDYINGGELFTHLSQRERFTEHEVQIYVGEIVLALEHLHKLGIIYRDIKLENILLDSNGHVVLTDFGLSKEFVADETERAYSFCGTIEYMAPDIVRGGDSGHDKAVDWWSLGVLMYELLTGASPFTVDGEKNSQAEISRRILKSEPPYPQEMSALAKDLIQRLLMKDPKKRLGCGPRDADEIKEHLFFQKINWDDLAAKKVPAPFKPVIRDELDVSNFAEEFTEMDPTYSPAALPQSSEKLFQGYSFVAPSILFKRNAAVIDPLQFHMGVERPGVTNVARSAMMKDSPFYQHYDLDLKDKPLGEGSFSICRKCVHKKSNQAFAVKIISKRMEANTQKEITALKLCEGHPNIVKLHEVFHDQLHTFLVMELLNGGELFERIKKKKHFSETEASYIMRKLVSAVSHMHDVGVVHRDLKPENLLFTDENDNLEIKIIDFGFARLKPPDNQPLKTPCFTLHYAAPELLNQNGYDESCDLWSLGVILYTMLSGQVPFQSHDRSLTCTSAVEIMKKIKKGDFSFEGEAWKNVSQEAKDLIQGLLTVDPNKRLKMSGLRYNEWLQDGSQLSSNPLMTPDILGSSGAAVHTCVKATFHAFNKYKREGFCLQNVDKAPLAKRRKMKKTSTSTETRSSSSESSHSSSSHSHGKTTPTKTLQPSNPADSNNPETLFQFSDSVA
Assay: KINOMEscan competition binding
Settings: compound 10.0 µM
Readout Label: kinase still bound, per cent of control (%)
Only the number, expressed in %, is required.

Challenge: What measured kinase still bound, per cent of control goes with CCN1CCN(Cc2ccc(NC(=O)c3ccc(C)c(/C=C/c4cnc(Nc5cc(N6CCNCC6)nc(C)n5)cn4)c3)cc2C(F)(F)F)CC1 ?
Response given: 100

Challenge: What measured kinase still bound, per cent of control goes with COc1cc(N2CCC(N3CCN(C)CC3)CC2)ccc1Nc1ncc(Cl)c(Nc2ccccc2S(=O)(=O)C(C)C)n1 ?
Response given: 40

Challenge: What measured kinase still bound, per cent of control goes with CCOc1cc(N2CCC(N3CCCCC3)CC2)ccc1Nc1nc(Nc2ccccc2S(=O)(=O)C(C)C)c2cn[nH]c2n1 ?
Response given: 100

Challenge: What measured kinase still bound, per cent of control goes with CCN1CCN(Cc2ccc(NC(=O)c3ccc(C)c(Oc4ccnc5[nH]ccc45)c3)cc2C(F)(F)F)CC1 ?
Response given: 4.7

###

Biological target: ERBB4 (human) (UniProt Q15303)
Sequence (Q15303 whole entry, looked up): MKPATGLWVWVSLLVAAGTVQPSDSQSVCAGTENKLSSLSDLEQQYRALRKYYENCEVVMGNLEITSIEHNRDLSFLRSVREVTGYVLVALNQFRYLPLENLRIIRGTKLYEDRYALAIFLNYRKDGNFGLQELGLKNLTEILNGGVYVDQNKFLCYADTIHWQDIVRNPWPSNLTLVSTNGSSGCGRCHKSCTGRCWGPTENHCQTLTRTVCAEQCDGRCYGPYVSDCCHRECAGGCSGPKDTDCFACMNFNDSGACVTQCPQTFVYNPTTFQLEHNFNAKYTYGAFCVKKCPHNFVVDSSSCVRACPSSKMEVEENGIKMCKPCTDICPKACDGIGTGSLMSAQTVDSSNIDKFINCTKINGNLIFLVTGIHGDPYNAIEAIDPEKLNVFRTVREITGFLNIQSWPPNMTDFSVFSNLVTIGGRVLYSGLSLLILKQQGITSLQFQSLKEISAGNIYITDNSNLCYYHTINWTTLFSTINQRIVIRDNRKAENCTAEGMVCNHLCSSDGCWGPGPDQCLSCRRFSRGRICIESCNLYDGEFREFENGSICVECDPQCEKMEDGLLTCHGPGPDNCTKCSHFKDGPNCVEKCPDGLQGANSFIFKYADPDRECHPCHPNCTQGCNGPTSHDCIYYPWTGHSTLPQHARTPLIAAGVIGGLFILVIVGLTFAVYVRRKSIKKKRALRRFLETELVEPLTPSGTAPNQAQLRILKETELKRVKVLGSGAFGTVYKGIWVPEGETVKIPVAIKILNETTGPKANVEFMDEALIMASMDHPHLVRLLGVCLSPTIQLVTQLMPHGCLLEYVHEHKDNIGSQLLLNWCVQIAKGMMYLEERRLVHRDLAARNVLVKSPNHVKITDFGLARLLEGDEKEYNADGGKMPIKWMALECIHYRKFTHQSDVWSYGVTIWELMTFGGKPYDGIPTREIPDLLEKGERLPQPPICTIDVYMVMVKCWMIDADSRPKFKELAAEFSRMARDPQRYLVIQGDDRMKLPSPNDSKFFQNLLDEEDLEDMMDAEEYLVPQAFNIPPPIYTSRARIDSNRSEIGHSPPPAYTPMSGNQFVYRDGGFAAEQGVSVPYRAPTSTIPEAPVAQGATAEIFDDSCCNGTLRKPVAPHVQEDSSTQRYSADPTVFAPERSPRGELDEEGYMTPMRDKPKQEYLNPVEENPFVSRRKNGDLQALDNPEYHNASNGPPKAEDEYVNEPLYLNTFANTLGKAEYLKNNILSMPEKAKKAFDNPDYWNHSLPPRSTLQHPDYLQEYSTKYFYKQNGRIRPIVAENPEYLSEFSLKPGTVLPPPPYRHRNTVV
Assay: KINOMEscan competition binding
Conditions: compound 10.0 µM
Readout Label: kinase still bound, per cent of control (%)
Only the number, expressed in %, is required.

Challenge: What measured kinase still bound, per cent of control goes with CCN1CCN(Cc2ccc(NC(=O)c3ccc(C)c(Oc4ccnc5[nH]ccc45)c3)cc2C(F)(F)F)CC1 ?
Response given: 28

Challenge: What measured kinase still bound, per cent of control goes with COc1cc(N2CCC(N3CCN(C)CC3)CC2)ccc1Nc1ncc(Cl)c(Nc2ccccc2S(=O)(=O)C(C)C)n1 ?
Response given: 1.2

Challenge: What measured kinase still bound, per cent of control goes with CCN1CCN(Cc2ccc(NC(=O)c3ccc(C)c(/C=C/c4cnc(Nc5cc(N6CCNCC6)nc(C)n5)cn4)c3)cc2C(F)(F)F)CC1 ?
Response given: 7

Challenge: What measured kinase still bound, per cent of control goes with CCOc1cc(N2CCC(N3CCCCC3)CC2)ccc1Nc1nc(Nc2ccccc2S(=O)(=O)C(C)C)c2cn[nH]c2n1 ?
Response given: 7.8

###

Target: EPHA2 (human) (UniProt P29317)
Sequence (P29317 whole entry, looked up): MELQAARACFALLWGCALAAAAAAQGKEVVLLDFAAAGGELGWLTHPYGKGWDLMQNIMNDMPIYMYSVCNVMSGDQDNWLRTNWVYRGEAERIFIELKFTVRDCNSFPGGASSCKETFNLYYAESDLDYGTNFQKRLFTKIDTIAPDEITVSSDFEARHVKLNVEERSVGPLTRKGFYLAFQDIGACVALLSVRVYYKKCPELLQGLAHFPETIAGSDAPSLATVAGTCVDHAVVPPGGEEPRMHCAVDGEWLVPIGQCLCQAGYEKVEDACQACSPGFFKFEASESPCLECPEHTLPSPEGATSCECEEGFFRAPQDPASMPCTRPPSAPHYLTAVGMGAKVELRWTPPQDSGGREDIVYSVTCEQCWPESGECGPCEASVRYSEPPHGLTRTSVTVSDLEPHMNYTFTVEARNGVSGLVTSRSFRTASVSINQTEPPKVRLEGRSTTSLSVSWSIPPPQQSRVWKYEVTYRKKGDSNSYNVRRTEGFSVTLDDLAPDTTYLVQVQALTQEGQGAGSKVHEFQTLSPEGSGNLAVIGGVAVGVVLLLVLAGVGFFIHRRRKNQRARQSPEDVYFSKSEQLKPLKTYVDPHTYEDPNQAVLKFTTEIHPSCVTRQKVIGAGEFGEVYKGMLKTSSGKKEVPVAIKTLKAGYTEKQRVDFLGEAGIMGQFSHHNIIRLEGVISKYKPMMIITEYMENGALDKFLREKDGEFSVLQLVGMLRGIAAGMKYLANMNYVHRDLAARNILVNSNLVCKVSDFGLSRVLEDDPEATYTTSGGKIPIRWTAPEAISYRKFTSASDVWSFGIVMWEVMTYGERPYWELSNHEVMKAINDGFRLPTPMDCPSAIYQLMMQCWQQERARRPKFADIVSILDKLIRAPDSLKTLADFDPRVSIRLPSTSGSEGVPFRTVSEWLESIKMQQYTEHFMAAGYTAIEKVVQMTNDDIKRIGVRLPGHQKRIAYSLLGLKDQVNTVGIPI
Experiment: KINOMEscan competition binding
Settings: compound 10.0 µM
For each entry below, report its kinase still bound, per cent of control value.
Only the number, expressed in %, is required.

Challenge: What measured kinase still bound, per cent of control goes with CCOc1cc(N2CCC(N3CCCCC3)CC2)ccc1Nc1nc(Nc2ccccc2S(=O)(=O)C(C)C)c2cn[nH]c2n1 ?
Response given: 100

Challenge: What measured kinase still bound, per cent of control goes with CCN1CCN(Cc2ccc(NC(=O)c3ccc(C)c(/C=C/c4cnc(Nc5cc(N6CCNCC6)nc(C)n5)cn4)c3)cc2C(F)(F)F)CC1 ?
Response given: 5.4

Challenge: What measured kinase still bound, per cent of control goes with CCN1CCN(Cc2ccc(NC(=O)c3ccc(C)c(Oc4ccnc5[nH]ccc45)c3)cc2C(F)(F)F)CC1 ?
Response given: 3.1

Challenge: What measured kinase still bound, per cent of control goes with COc1cc(N2CCC(N3CCN(C)CC3)CC2)ccc1Nc1ncc(Cl)c(Nc2ccccc2S(=O)(=O)C(C)C)n1 ?
Response given: 27

###

For each entry below, report its kinase still bound, per cent of control value.
Target: MAPK11 (human) (UniProt Q15759)
Sequence (Q15759 whole entry, looked up): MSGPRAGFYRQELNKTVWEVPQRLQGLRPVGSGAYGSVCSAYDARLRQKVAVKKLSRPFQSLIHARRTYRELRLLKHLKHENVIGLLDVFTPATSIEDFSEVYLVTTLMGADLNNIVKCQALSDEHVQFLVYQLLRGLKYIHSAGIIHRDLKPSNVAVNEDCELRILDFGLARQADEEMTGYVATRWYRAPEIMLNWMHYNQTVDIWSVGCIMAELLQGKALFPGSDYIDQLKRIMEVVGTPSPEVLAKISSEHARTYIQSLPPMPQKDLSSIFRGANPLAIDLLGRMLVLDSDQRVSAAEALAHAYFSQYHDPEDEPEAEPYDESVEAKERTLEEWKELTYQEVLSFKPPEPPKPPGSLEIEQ
Experiment: KINOMEscan competition binding
Details: compound 10.0 µM
Only the number, expressed in %, is required.

Challenge: What measured kinase still bound, per cent of control goes with CCOc1cc(N2CCC(N3CCCCC3)CC2)ccc1Nc1nc(Nc2ccccc2S(=O)(=O)C(C)C)c2cn[nH]c2n1 ?
Response given: 100

Challenge: What measured kinase still bound, per cent of control goes with CCN1CCN(Cc2ccc(NC(=O)c3ccc(C)c(/C=C/c4cnc(Nc5cc(N6CCNCC6)nc(C)n5)cn4)c3)cc2C(F)(F)F)CC1 ?
Response given: 3.2

Challenge: What measured kinase still bound, per cent of control goes with COc1cc(N2CCC(N3CCN(C)CC3)CC2)ccc1Nc1ncc(Cl)c(Nc2ccccc2S(=O)(=O)C(C)C)n1 ?
Response given: 40

Challenge: What measured kinase still bound, per cent of control goes with CCN1CCN(Cc2ccc(NC(=O)c3ccc(C)c(Oc4ccnc5[nH]ccc45)c3)cc2C(F)(F)F)CC1 ?
Response given: 0

###

Target: MYO3A (human) (UniProt Q8NEV4)
Sequence (Q8NEV4 whole entry, looked up): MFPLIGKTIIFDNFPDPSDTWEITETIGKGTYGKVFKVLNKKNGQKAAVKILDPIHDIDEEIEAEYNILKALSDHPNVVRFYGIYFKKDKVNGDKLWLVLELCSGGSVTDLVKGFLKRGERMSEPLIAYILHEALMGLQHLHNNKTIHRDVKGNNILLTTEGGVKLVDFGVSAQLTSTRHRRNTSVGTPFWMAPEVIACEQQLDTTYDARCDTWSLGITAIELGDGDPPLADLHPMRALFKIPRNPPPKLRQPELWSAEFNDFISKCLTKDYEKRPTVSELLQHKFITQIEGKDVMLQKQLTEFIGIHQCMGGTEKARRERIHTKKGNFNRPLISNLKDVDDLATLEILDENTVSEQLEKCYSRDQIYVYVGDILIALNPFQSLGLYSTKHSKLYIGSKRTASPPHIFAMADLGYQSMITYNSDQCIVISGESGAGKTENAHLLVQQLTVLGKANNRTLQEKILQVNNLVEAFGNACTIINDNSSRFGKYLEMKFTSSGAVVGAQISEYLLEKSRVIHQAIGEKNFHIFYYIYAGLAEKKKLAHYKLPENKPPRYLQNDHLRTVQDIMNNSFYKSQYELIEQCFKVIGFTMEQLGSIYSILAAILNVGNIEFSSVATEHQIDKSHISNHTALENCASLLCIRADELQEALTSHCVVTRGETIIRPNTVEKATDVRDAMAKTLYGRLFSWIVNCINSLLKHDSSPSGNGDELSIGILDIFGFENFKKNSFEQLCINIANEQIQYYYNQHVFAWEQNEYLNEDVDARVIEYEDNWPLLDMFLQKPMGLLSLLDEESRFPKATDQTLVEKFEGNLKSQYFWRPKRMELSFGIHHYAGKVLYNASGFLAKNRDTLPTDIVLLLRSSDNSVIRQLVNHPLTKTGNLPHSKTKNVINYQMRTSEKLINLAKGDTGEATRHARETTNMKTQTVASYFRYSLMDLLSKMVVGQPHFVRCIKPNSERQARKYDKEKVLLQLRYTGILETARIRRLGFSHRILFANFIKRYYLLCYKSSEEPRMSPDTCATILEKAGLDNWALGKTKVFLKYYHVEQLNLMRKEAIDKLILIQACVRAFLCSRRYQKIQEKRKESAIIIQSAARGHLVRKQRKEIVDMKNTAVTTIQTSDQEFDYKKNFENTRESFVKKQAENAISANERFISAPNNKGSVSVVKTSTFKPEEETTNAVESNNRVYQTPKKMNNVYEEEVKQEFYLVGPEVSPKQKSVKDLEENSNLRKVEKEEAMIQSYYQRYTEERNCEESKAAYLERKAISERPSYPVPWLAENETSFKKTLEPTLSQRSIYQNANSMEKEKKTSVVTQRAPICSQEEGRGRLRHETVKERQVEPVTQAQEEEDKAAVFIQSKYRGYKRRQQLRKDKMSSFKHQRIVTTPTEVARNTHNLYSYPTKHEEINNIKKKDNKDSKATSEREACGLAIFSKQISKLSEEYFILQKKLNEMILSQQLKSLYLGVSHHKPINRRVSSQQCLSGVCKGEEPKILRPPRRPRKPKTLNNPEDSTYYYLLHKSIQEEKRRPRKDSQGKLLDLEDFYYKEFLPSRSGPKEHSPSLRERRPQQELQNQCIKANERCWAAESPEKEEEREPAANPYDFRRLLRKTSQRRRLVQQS
Assay: KINOMEscan competition binding
Conditions: compound 10.0 µM
For each entry below, report its kinase still bound, per cent of control value.
Only the number, expressed in %, is required.

Challenge: What measured kinase still bound, per cent of control goes with CCN1CCN(Cc2ccc(NC(=O)c3ccc(C)c(/C=C/c4cnc(Nc5cc(N6CCNCC6)nc(C)n5)cn4)c3)cc2C(F)(F)F)CC1 ?
Response given: 60

Challenge: What measured kinase still bound, per cent of control goes with CCOc1cc(N2CCC(N3CCCCC3)CC2)ccc1Nc1nc(Nc2ccccc2S(=O)(=O)C(C)C)c2cn[nH]c2n1 ?
Response given: 38

Challenge: What measured kinase still bound, per cent of control goes with CCN1CCN(Cc2ccc(NC(=O)c3ccc(C)c(Oc4ccnc5[nH]ccc45)c3)cc2C(F)(F)F)CC1 ?
Response given: 6.4

Challenge: What measured kinase still bound, per cent of control goes with COc1cc(N2CCC(N3CCN(C)CC3)CC2)ccc1Nc1ncc(Cl)c(Nc2ccccc2S(=O)(=O)C(C)C)n1 ?
Response given: 0.25

Data origin, for the record: the kinase profiling compilation of Christmann-Franck et al. (2016)
